All values here come from ChEMBL document CHEMBL5724914.

- particulars: human gut metagenome, 24 h, 2 µM; further: call rule not given here
attribute-measured: Bacterial Biotransformation

Examples from the recorded data:
>  <molecule>
CCCCC(=O)N(Cc1ccc(-c2ccccc2-c2nnn[nH]2)cc1)[C@H](C(=O)O)C(C)C

>  <Bacterial Biotransformation>
Compound NOT metabolized

$$$$
>  <molecule>
O=C(CCCN1CCC(O)(c2ccc(Cl)cc2)CC1)c1ccc(F)cc1

>  <Bacterial Biotransformation>
Compound NOT metabolized

$$$$
>  <molecule>
COc1ccc2[nH]c([S+]([O-])Cc3ncc(C)c(OC)c3C)nc2c1 (centres undefined)

>  <Bacterial Biotransformation>
Compound metabolized

$$$$
>  <molecule>
CCC(=O)NCC[C@@H]1CCc2ccc3c(c21)CCO3

>  <Bacterial Biotransformation>
Compound metabolized

$$$$
>  <molecule>
CC(CN1c2ccccc2Sc2ccccc21)N(C)C (centres undefined)

>  <Bacterial Biotransformation>
Compound NOT metabolized

$$$$

Q. // returns reported Bacterial Biotransformation for input CC(CN(C)C)CN1c2ccccc2CCc2ccccc21.O=C(O)/C=C\C(=O)O (centres undefined) [TRIMIPRAMINE MALEATE]
A. Compound NOT metabolized

Q. What about CN1CCN(C2=Nc3cc(Cl)ccc3Nc3ccccc32)CC1 ?
A. Compound NOT metabolized

Q. What about Cc1ccnc2c1NC(=O)c1cccnc1N2C1CC1 ?
A. Compound NOT metabolized

Q. What about O=P(O)(O)O.c1ccc(CN(CC2=NCCN2)c2ccccc2)cc1 [ANTAZOLINE PHOSPHATE] ?
A. Compound NOT metabolized
